system: HepG2; assay: Inhibition of NF-kappaB-induced iNOS mRNA expression in TNF-alpha-stimulated human HepG2 cells after 1 hr by RT-PCR analysis; format: cell-based
Experimental readout: inhibition

[[record]]
structure = "CC1(C)CC[C@]2(C(=O)O[C@@H]3O[C@H](CO)[C@@H](O)[C@H](O)[C@H]3O)CC[C@]3(C)C(=CC[C@@H]4[C@@]5(C)CC[C@H](O)[C@@](C)(CO)[C@@H]5[C@H](O)C[C@]43C)[C@@H]2C1"
observed = "Dose-dependent effect"

[[record]]
structure = "CC(=O)O[C@@H]1[C@@H](O)[C@H](O[C@H]2CC[C@@]3(C)[C@@H](CC[C@]4(C)[C@@H]3CC=C3[C@@H]5CC(C)(C)CC[C@]5(C(=O)O[C@@H]5O[C@H](CO[C@@H]6O[C@H](CO)[C@@H](O[C@@H]7O[C@@H](C)[C@H](O)[C@@H](O)[C@H]7O)[C@H](O)[C@H]6O)[C@@H](O)[C@H](O)[C@H]5O)CC[C@]34C)[C@]2(C)CO)OC[C@@H]1OC(C)=O"
observed = "Dose-dependent effect"

[[record]]
structure = "C[C@@H]1O[C@@H](O[C@H]2[C@H](O[C@H]3CC[C@@]4(C)[C@@H](CC[C@]5(C)[C@@H]4CC=C4[C@@H]6CC(C)(C)CC[C@]6(C(=O)O[C@@H]6O[C@H](CO[C@@H]7O[C@H](CO)[C@@H](O[C@@H]8O[C@@H](C)[C@H](O)[C@@H](O)[C@H]8O)[C@H](O)[C@H]7O)[C@@H](O)[C@H](O)[C@H]6O)CC[C@]45C)[C@]3(C)CO)OC[C@H](O)[C@@H]2O[C@@H]2O[C@H](CO)[C@@H](O)[C@H](O)[C@H]2O)[C@H](O)[C@H](O)[C@H]1O"
observed = "Dose-dependent effect"

